- Assay conditions: in DMSO, 308.15 K
Measurement label: solubility (mole fraction)
Just the number.

Ask | Please report the recorded solubility (mole fraction) for [NH3+]O.[NH3+]O.[O-]n1nnnc1-c1nnnn1[O-] .
Reply | 0.00159

###

- Assay conditions: in formic acid, 298.15 K
Measurement label: solubility (mole fraction)
# answer = number (no unit)

Ask | // lookup solubility (mole fraction) for [NH3+]O.[NH3+]O.[O-]n1nnnc1-c1nnnn1[O-]
Reply | 0.000231

###

- Assay conditions: in ethanol, 323.15 K
Measurement label: solubility (mole fraction)
Just the number, please.

Ask | Entry under review: [NH3+]O.[NH3+]O.[O-]n1nnnc1-c1nnnn1[O-] . Reported solubility (mole fraction)?
Reply | 1.21e-05

###

- Assay conditions: in toluene, 293.15 K
Measurement label: solubility (mole fraction)
Just the number, please, no unit attached.

Ask | Which measured solubility (mole fraction) value corresponds to [NH3+]O.[NH3+]O.[O-]n1nnnc1-c1nnnn1[O-] ?
Reply | 1.85e-05

###

- Assay conditions: in DMF, 303.15 K
Measurement label: solubility (mole fraction)

Ask | What does the data say about its solubility (mole fraction)? Entry: [NH3+]O.[NH3+]O.[O-]n1nnnc1-c1nnnn1[O-]
Reply | 9.56e-05

###

- Assay conditions: in ethanol, 298.15 K
Measurement label: solubility (mole fraction)

Ask | // lookup solubility (mole fraction) for [NH3+]O.[NH3+]O.[O-]n1nnnc1-c1nnnn1[O-]
Reply | 4.82e-06

###

- Assay conditions: in ethyl acetate, 308.15 K
Measurement label: solubility (mole fraction)
Reply: number alone, nothing else.

Ask | Look up solubility (mole fraction): [NH3+]O.[NH3+]O.[O-]n1nnnc1-c1nnnn1[O-]
Reply | 2.72e-06

###

- Assay conditions: in formic acid, 303.15 K
Measurement label: solubility (mole fraction)
Quick one: just the number, no unit, thanks!

Ask | Quick one: solubility (mole fraction) for [NH3+]O.[NH3+]O.[O-]n1nnnc1-c1nnnn1[O-] ?
Reply | 0.00025

Data origin, for the record: BigSolDB 2.1
